Molecular target: human GABAA α5β2γ1 receptor (Homo sapiens (Human), UniProt P31644+Q8N1C3)
Assay: Radioligand binding assay, competition for [3H]RO7239181, γ1-containing GABAA subtypes
property: pKi
Lab note — pKi values are minus log10 of concentrations in M.

What value of measured pKi is listed for [2H]C1([2H])OCc2c(sc3c2C(c2c(F)cccc2F)=N[C@@H](C)c2nc(C(=O)NCC)nn2-3)OC1([2H])[2H] ? 8.44

// repeat for C[C@@H]1N=C(c2c(F)cccc2F)c2c(sc3c2COCCO3)-n2nc(C(=O)N3CC(OC(C)(C)C)C3)nc21 and report 8.74

// repeat for [2H]C1([2H])OCc2c(sc3c2C(c2c(F)cccc2F)=N[C@@H](C)c2nc(C(=O)N4CC(OCC)C4)nn2-3)OC1([2H])[2H] and report 8.73

// repeat for Cc1nnc2n1-c1sc3c(c1C(c1c(F)cccc1F)=N[C@H]2C)CCCCO3 and report 8.73

// repeat for Cc1nnc2n1-c1sc3c(c1C(c1c(F)cccc1F)=N[C@H]2C)COC[C@H](C)O3 and report 8.48

// repeat for CC(C)c1nnc2n1-c1sc3c(c1C(c1c(F)cccc1F)=N[C@H]2C)COCCO3 and report 8.31

// repeat for C[C@@H]1N=C(c2c(F)cccc2F)c2c(sc3c2COC[C@H](C)O3)-n2nc(C(=O)NCCO)nc21 and report 8.21
